B1: HDV Ribozyme (parent)
chain: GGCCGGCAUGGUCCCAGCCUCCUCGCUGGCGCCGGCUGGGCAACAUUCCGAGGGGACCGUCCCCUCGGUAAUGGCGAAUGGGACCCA

- Variants of: B1
- procedure.details: self-cleavage, relative activity (ratio to wild type); higher = more cleavage; co-transcriptional
I'd appreciate it if you could supply self-cleavage values for the items below.
The answer should be a number; do not append a unit.

Please look at this variant and report its self-cleavage: U23C G31C
0.141

Find the measured self-cleavage of C22U A70U and report it.
0.587

Specify reported self-cleavage for the variant shown: C24A G73C
0.211

Determine from records and report self-cleavage for U46G U60G
0.415

Retrieve self-cleavage measured for G28A C62A and print it.
0.0297

// Input: C30U C61U . Output its self-cleavage only.
0.719

Provide measured self-cleavage value, entry: U12C G39A
0.106

Look up and state reported self-cleavage for C18A U79C
0.117

State its self-cleavage for this variant: C36U A43C
0

Kindly indicate its recorded self-cleavage. Item: A16C G35A
0.175

Assign self-cleavage to the following record: G50C G68A
0.563

Identify measured self-cleavage corresponding to C57G U72A
0.635

Write down self-cleavage measured for item "C36U"
0.744

Give self-cleavage for G1A C41A
0.222

Item G5A C62U : provide self-cleavage
0.16

Respond only with self-cleavage recorded for C18U A43U
0.138

Annotate the variant U9C U69C with its measured self-cleavage.
0.969

# return recorded self-cleavage for input A16G G31U
0.375

Give the reported value of self-cleavage for this record: G53C A77C
0.443

Output self-cleavage of C62A U69C
0.882

Please report the measured self-cleavage for G50U G82C
0.435

Give self-cleavage for the following variant: G5A C30U
0.0692

# credit: the RNAGym collection of RNA variant scans (doi:10.7554/elife.80360)
